Reference source for all entries: ChEMBL document CHEMBL2429750

- protocol-summary: Chronic cytotoxicity against PEK cells after 7 days by neutral red staining assay
- Format: cell-based, Sus scrofa
- stated-conditions: pig
measurement-label: CC50 at 168 h (µM)
Just the number in µM, nothing appended.

CC1=C(C(=O)Nc2ccccc2)C(c2cccs2)C(C#N)=C(SCC(=O)c2ccccc2)N1 (racemic)    17
CCc1ccc(N2CSC3=C(C#N)C(c4cccc(OCc5ccccc5)c4)CC(=O)N3C2)cc1 (racemic)    236
COc1ccc(N2CSC3=C(C#N)C(c4ccc(OCc5ccccc5)c(OC)c4)CC(=O)N3C2)cc1 (racemic)    53

Now take the following compound into account.
IN: I have this compound here, CC1=C(C(=O)Nc2ccc(Cl)cc2)C(c2ccccc2)C(C#N)=C(SCC(=O)Nc2cccc(C)c2)N1 (racemic) , and I need its recorded CC50 at 168 h.
OUT: 41

----------
- protocol-summary: Acute cytotoxicity against PEK cells after 24 hrs by neutral red staining assay
- Format: cell-based, Sus scrofa
- stated-conditions: pig
Documented CC50 at 24 h across a set of molecules
Enter your answer as a number in µM; do not include the unit.

COc1ccc(N2CSC3=C(C#N)C(c4ccc(OCc5ccc(Cl)cc5)cc4)CC(=O)N3C2)c(OC)c1 (racemic)    109

IN: Fill in: CC50 at 24 h of CC1=C(C(=O)Nc2ccc(Cl)cc2)C(c2ccccc2)C(C#N)=C(SCC(=O)Nc2ccc3ccccc3c2)N1 (racemic) is ___
OUT: 111

----------
Below: a set of entries, each annotated with reported CC50 at 24 h.
- protocol-summary: Acute cytotoxicity against PEK cells after 24 hrs by neutral red staining assay
- Assay type: cell-based, Sus scrofa
- stated-conditions: pig

CCc1ccc(NC(=O)CSC2=C(C#N)C(c3ccco3)C(C(=O)Nc3ccc(S(N)(=O)=O)cc3)=C(C)N2)cc1 (racemic)    > 250 µM
CCOc1ccccc1N1CSC2=C(C#N)C(c3cccc(OCc4ccccc4)c3)CC(=O)N2C1 (racemic)    > 250 µM
CC1=C(C(=O)Nc2nc3ccccc3s2)C(c2ccco2)C(C#N)=C(SCC(=O)Nc2nc3ccccc3s2)N1 (racemic)    > 250 µM

The record that follows has no CC50 at 24 h shown yet.
IN: Entry under review: CCc1ccc(N2CSC3=C(C#N)C(c4cccc(OCc5ccccc5)c4)CC(=O)N3C2)cc1 (racemic) . Reported CC50 at 24 h?
OUT: > 250 µM

----------
# IC50 values compiled below
- System: Tick-borne encephalitis virus
- protocol-summary: Antiviral activity against Tick-borne encephalitis virus Absettarov infected in PEK cells assessed as inhibition of viral plaque formation after 1 hr by gentian violet staining assay
- Assay type: functional, cell-based

Solved entries (count: 3):
CC1=C(C(=O)Nc2nc3ccccc3s2)C(c2ccco2)C(C#N)=C(SCC(=O)Nc2ccc(C(C)C)cc2)N1 (racemic)    > 10 µM
CCc1ccc(NC(=O)CSC2=C(C#N)C(c3ccc(O)c(OC)c3)C(C(=O)Nc3ccccc3)=C(C)N2)cc1 (racemic)    > 10 µM
CCOc1ccccc1N1CSC2=C(C#N)C(c3cccc(OCc4ccccc4)c3)CC(=O)N2C1 (racemic)    2.6 µM

Next up:
IN: Bench note: what IC50 did CCc1ccc(NC(=O)CSC2=C(C#N)C(c3ccco3)C(C(=O)Nc3ccc(CC)cc3)=C(C)N2)cc1 (racemic) show?
OUT: > 10 µM

----------
# key: entry, value: CC50 at 168 h
- protocol-summary: Chronic cytotoxicity against PEK cells after 7 days by neutral red staining assay
- Assay type: cell-based, Sus scrofa
- stated-conditions: pig

Observe how each entry below is paired with its result.
CC1=C(C(=O)Nc2ccccc2C)C(c2ccco2)C(C#N)=C(SCC(=O)Nc2ccc3ccccc3c2)N1 (racemic)    > 250 µM
CCc1ccc(NC(=O)CSC2=C(C#N)C(c3ccc(O)c(OC)c3)C(C(=O)Nc3ccccc3)=C(C)N2)cc1 (racemic)    31 µM
CC1=C(C(=O)Nc2ccc(Cl)cc2)C(c2ccccc2)C(C#N)=C(SCC(=O)Nc2ccc(Oc3ccccc3)cc2)N1 (racemic)    38 µM

IN: What measured CC50 at 168 h goes with COc1ccc(NC(=O)CSC2=C(C#N)C(c3ccccc3F)C(C(=O)Nc3ccccc3C)=C(C)N2)cc1 (racemic) ?
OUT: 89 µM

IN: Tell me the measured CC50 at 168 h of CCCCc1ccc(NC(=O)CSC2=C(C#N)C(c3ccco3)C(C(=O)Nc3ccc(OCC)cc3)=C(C)N2)cc1 (racemic) , please.
OUT: 14 µM

IN: Quick one: CC50 at 168 h for CC1=C(C(=O)Nc2nc3ccccc3s2)C(c2ccco2)C(C#N)=C(SCC(=O)Nc2nc3ccccc3s2)N1 (racemic) ?
OUT: 52 µM

----------
- protocol-summary: Acute cytotoxicity against PEK cells after 24 hrs by neutral red staining assay
- Assay type: cell-based, Sus scrofa
- stated-conditions: pig
Reported CC50 at 24 h values for the following molecules.
Entry rule: numbers only, all in µM.

CCc1ccc(NC(=O)CSC2=C(C#N)C(c3ccco3)C(C(=O)Nc3ccc(CC)cc3)=C(C)N2)cc1 (racemic)    57

Now look at this entry.
IN: Query (molecule): CCc1ccc(NC(=O)CSC2=C(C#N)C(c3ccc(O)c(OC)c3)C(C(=O)Nc3ccccc3)=C(C)N2)cc1 (racemic) ; field requested: CC50 at 24 h
OUT: 114
